Test system: human neutrophil elastase
Construct: purchased Merck
Test: Enzymatic digestion with human neutrophil elastase, RP-HPLC
Assay type: in vitro ADME
Details: human, isolated enzyme elastase, pH 7.5
No end group written: not given here.
Experimental readout: remaining at 5 h, 1 mg/mL (%)
Number in %, nothing else.

Task item: What measured remaining at 5 h, 1 mg/mL goes with RWKIFKKIEKMGRNIRDGIVKAGPAIQVLGSAKAI-NH2 [L-Q53 CecB] ?
Reply: 0.3
